System: Plasmodium falciparum blood forms (W2 clone, chloroquine-resistant)
Experiment: in vitro antiplasmodial activity, anti-histidine-rich protein II assay
Assay type: cell-based
Details: P. falciparum W2 clone, CQ-resistant, blood-stage; anti-HRPII assay; read-out: IC50 Pf
Value type: IC50 (µM)
Numbers only, in µM.

Prompt: Supply reported IC50 belonging to this molecule: "CCC(=C(c1ccccc1)c1ccccc1)c1ccccc1"
Response: 83

* * *

Test system: Plasmodium falciparum blood forms (W2 clone, chloroquine-resistant)
Assay: in vitro antiplasmodial activity, anti-histidine-rich protein II assay
Type: cell-based
Conditions: Plasmodium falciparum, W2, read-out: IC50 Pf
Value type: pIC50
One number for each entry, as −log10 of the molar value.

Prompt: Supply reported pIC50 belonging to this molecule: CCN(CC)CCCC(C)Nc1ccnc2cc(Cl)ccc12 (stereo not shown) [CQ, chloroquine, reference compound]
Response: 7.00
